Data provenance is the supplement of paper PMC8728848.

Reported glycan array binding signal (z-score) values for a set of binders
molecular target: Gal(b1-4)Glc; assay: glycan array binding signal (z-score within array); higher = stronger binding; details: glycan notation: IUPAC condensed, linker removed
This excerpt belongs to a sample that is enriched for the strongest signals.

| binder | glycan array binding signal (z-score) |
| --- | --- |
| DrGRIFIN (Danio rerio), Q6DGJ1 (protein) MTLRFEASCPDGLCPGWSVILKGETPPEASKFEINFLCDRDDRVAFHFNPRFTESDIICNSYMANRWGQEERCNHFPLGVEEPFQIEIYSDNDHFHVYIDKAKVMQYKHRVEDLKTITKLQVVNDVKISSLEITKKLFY | -0.191 |
| LysMD3 (Homo sapiens), Q7Z3D4 (protein) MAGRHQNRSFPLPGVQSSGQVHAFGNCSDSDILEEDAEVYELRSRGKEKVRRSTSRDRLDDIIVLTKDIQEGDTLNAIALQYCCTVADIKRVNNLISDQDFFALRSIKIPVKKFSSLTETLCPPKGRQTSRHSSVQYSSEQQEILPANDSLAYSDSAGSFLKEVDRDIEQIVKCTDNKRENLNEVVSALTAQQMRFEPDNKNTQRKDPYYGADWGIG | -0.555 |
| CLECSF8 (Mus musculus), Q9Z2H6 (protein) HYFLRWTRGSVVKLSDYHTRVTCIREEPQPGATGGTWTCCPVSWRAFQSNCYFPLNDNQTWHESERNCSGMSSHLVTINTEAEQNFVTQLLDKRFSYFLGLADENVEGQWQWVDKTPFNPHTVFWEKGESNDFMEEDCVVLVHVHEKWVWNDFPCHFEVRRICKLPGITFNWKPSK | -0.424 |
